- targetUnderTest: human PD-L1 expressed on cell surface (human, UniProt Q9NZQ7 19-290)
- Sequence (Q9NZQ7 19-290 limits assumed): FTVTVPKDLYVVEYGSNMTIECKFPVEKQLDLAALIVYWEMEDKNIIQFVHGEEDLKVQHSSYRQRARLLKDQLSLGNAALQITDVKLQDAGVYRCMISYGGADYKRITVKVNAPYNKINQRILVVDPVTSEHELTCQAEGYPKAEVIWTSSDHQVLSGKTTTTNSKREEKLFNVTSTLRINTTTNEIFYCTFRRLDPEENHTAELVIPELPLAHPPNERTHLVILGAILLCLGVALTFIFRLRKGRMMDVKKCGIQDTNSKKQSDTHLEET
- assayExplanation: cell-based or functional assay
endpointLabel: Internalization (%), FACS, 0.25 µg/ml, 2 h
Write the answer as a number in %, unit excluded.

Please review the entries below; each comes with its answer.
Input line: # get_value(readout='Internalization (%), FACS, 0.25 µg/ml, 2 h', item= 32E2 (antibody, human IgG1, V domains shown) VH: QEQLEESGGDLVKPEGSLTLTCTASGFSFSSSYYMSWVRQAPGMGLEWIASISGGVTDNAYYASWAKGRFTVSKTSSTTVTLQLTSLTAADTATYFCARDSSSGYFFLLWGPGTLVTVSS VL: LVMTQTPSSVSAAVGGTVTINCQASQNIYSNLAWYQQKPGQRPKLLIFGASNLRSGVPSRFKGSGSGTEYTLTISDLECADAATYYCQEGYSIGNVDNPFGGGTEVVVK )
Output line: 2.2

Input line: # get_value(readout='Internalization (%), FACS, 0.25 µg/ml, 2 h', item= 57B10 (antibody, human IgG1, V domains shown) VH: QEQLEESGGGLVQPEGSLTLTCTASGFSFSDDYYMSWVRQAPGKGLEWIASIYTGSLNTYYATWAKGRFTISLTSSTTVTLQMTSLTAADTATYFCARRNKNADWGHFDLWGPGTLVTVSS VL: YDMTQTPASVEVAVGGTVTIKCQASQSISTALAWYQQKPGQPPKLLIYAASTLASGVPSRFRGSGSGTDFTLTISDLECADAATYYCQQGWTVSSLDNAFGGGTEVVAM )
Output line: 19.3

Input line: # get_value(readout='Internalization (%), FACS, 0.25 µg/ml, 2 h', item= 57F11 (antibody, human IgG1, V domains shown) VH: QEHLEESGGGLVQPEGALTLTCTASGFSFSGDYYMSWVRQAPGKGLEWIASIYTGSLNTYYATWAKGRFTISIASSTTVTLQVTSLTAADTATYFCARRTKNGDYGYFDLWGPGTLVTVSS VL: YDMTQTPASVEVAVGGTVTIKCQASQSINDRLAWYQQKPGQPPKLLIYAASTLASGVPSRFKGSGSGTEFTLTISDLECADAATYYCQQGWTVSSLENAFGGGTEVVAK )
Output line: 17.9

Input line: # get_value(readout='Internalization (%), FACS, 0.25 µg/ml, 2 h', item= 56E5 (antibody, human IgG1, V domains shown) VH: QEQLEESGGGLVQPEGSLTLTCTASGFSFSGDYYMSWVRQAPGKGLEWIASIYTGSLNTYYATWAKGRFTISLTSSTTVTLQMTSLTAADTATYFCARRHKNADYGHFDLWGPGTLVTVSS VL: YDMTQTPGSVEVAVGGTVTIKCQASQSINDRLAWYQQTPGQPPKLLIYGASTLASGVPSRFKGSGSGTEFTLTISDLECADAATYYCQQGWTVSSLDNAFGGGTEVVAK )
Output line: 22.9

Now for a further binder.
Input line: # get_value(readout='Internalization (%), FACS, 0.25 µg/ml, 2 h', item= 33E8 (antibody, human IgG1, V domains shown) VH: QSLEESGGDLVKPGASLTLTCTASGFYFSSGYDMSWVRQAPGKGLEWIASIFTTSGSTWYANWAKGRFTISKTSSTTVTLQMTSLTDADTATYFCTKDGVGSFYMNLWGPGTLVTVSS VL: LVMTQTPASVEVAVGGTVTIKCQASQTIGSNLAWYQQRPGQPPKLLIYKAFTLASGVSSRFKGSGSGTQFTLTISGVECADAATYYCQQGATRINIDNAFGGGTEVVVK )
Output line: 20.9
